System: HepG2
assay procedure: cytotoxicity call (relative viability < 0.9)
experimental context: 10 µM
The campaign covered roughly 39,000 compounds. About 3,300 (8.5%) were called active. What follows is part of a selection rich in actives, with near analogues and random picks from the rest.
Pick one: active, inactive

>>> print(df.to_string())
                                item_smiles  category
0  O=C(NO)c1ccc(C(=O)N/N=C/[C@H](O)[C@H](O)[C@@H](O)[C@@H](O)CO)cc1  inactive
1                       S=C1NCN(C2CCCC2)CN1  inactive

How did this test come out for COc1ccc(S(=O)(=O)N(C)C[C@@H]2Oc3ccc(NS(C)(=O)=O)cc3CC(=O)N([C@H](C)CO)C[C@@H]2C)cc1 ?
inactive

What was the test verdict on C[C@H]1CCCCO[C@@H](CN(C)S(=O)(=O)c2ccccc2)[C@@H](C)CN([C@@H](C)CO)C(=O)c2cc(NC(=O)C3CCCCC3)ccc2O1 ?
inactive

Hello, I am checking results. What call was entered for CC(C)NC(=O)Nc1ccc2c(c1)C(=O)N([C@H](C)CO)C[C@H](C)[C@@H](CN(C)Cc1ccc(C(=O)O)cc1)O2 ?
inactive

Just curious, what result did C[C@]1(C(=O)NCC(F)(F)F)c2ccccc2C(=O)N(Cc2cc(F)cc(C(F)(F)F)c2)[C@H]1c1ccc(CO)cc1 get here?
inactive

---

Test system: HepG2
assay procedure: cytotoxicity call (relative viability < 0.9)
experimental context: 10 µM
Among all 39,000 compounds or so, about 3,300 (8.5%) were called active. What follows is part of a selection rich in actives, with near analogues and random picks from the rest.
Can you answer with just one of these options? active, inactive

Please review the following examples before continuing.
molecule	category
NC(=O)NCC#Cc1ccc2c(c1)[C@]1(C(=O)N2)[C@H](C(=O)N2CCN(c3ncccn3)CC2)[C@H]2C(=O)O[C@H](c3ccccc3)[C@H](c3ccccc3)N2[C@@H]1c1ccccc1OCCO	inactive
COC(=O)C1=C(C)NC(C)=C(C(=O)OCCCN2CCC(c3ccccc3)(c3ccccc3)CC2)[C@H]1c1cccc([N+](=O)[O-])c1	active
CC1=C(C(=O)OCCN(Cc2ccccc2)c2ccccc2)[C@@H](c2cccc([N+](=O)[O-])c2)C(P2(=O)OCC(C)(C)CO2)=C(C)N1.CCO.Cl	inactive
CC1=CC(=O)C2=C(C)CCC3C(C)C(=O)OC3C12 (stereo not drawn)	inactive
COc1ccc(S(=O)(=O)N(C)C[C@H]2Oc3c(NS(C)(=O)=O)cccc3C(=O)N([C@@H](C)CO)C[C@H]2C)cc1	inactive
COCCOC(=O)C1=C(C)NC(C)=C(C(=O)OCC=Cc2ccccc2)C1c1cccc([N+](=O)[O-])c1 (stereo not drawn)	active

Which outcome was entered for the molecule C[C@H](CO)N1C[C@H](C)[C@H](CN(C)C(=O)Nc2cccc(Cl)c2Cl)OCc2ccccc2-c2ccccc2C1=O in this test?
inactive

Look up the recorded call for CCC[C@@H](N[C@H]1CCS(=O)(=O)C1)C(=O)O in this test.
inactive

---

Test system: HepG2
assay procedure: cytotoxicity call (relative viability < 0.9)
experimental context: 10 µM
Hit rate of the full screen: of about 39,000 compounds, about 3,300 (8.5%) were called active. The sample holds actives, similar compounds and a random draw of the others, so the mix is not that of the screen.
Respond with a class label; see active, inactive

Consider the following illustrative entries.
In [3]: df
Out[3]:
                                   compound  assayed_system  category
0  Cc1cn([C@H]2O[C@@H](CO)[C@H](O)[C@H]2F)c(=O)[nH]c1=O           HepG2  inactive
1           N[C@@H](Cn1ccc(=O)c(O)c1)C(=O)O           HepG2  inactive
2  C[C@H]1CN([C@@H](C)CO)C(=O)Cc2cc(NS(=O)(=O)c3ccccc3)ccc2O[C@H]1CN(C)S(C)(=O)=O           HepG2  inactive
3  Cc1noc(C)c1S(=O)(=O)Nc1ccc2c(c1)C(=O)N([C@@H](C)CO)C[C@H](C)[C@@H](CN(C)C(=O)NC(C)C)O2           HepG2  inactive
4  C[C@@H]1CN([C@@H](C)CO)C(=O)c2cccc(NC(=O)Nc3ccc(C(F)(F)F)cc3)c2O[C@@H]1CN(C)S(=O)(=O)c1ccc(F)cc1           HepG2  inactive
5  C[C@H](CO)N1C[C@H](C)[C@@H](CN(C)Cc2ccccc2)Oc2ccc(NC(=O)Cn3cnnn3)cc2C1=O           HepG2  inactive
6  COc1ccc(NC(=O)Nc2cccc3c2O[C@H](CN(C)Cc2ccc(-c4ccccc4)cc2)[C@H](C)CN([C@H](C)CO)C3=O)cc1           HepG2    active
7  C[C@@H]1CCCCO[C@@H](CN(C)Cc2ccncc2)[C@H](C)CN([C@H](C)CO)C(=O)c2cc(NC(=O)C3CCCCC3)ccc2O1           HepG2  inactive
8  CC(CN)(Cc1ccccc1Cl)C(=O)O (configuration not stated)           HepG2  inactive
9  C[C@H]1CN([C@@H](C)CO)C(=O)c2cc(NC(=O)Nc3ccc(C(F)(F)F)cc3)ccc2O[C@@H]1CN(C)Cc1ccc(Oc2ccccc2)cc1           HepG2  inactive

Identify the outcome logged in this assay for the compound shown: c1ccc2nc(-c3cn[nH]c3)ccc2c1
inactive

# lookup: test call for C[C@H](CO)N1C[C@H](C)[C@@H](CN(C)C(=O)Cc2ccccc2)OCCCC[C@H](C)Oc2ccc(NS(=O)(=O)c3cccs3)cc2C1=O
inactive

Identify the outcome logged in this assay for the compound shown: COc1ccc(S(=O)(=O)N(C)C[C@@H]2OCCCC[C@@H](C)Oc3ccc(NC(=O)Nc4ccccc4)cc3C(=O)N([C@@H](C)CO)C[C@@H]2C)cc1
inactive

Returns: the outcome recorded for C[C@@H]1CN([C@@H](C)CO)C(=O)c2cc(NC(=O)CCCCCC(=O)Nc3ccccc3N)ccc2O[C@@H]1CN(C)S(C)(=O)=O in this assay.
inactive

Which outcome was entered for the compound CC1(C)C[C@H](c2nc(-c3ccccc3)cs2)CCS1 in this test?
active

Dear all, I need the recorded test outcome for C[C@@H]1CN([C@H](C)CO)C(=O)c2cc(NC(=O)Nc3ccc(C(F)(F)F)cc3)ccc2O[C@H]1CN(C)Cc1ccc(Oc2ccccc2)cc1 , thank you.
inactive

Short answer needed: outcome of this test for N[C@@H](CN1C=CC(=O)C(=O)C1)C(=O)O ?
inactive

Could you kindly confirm the outcome this assay logged for O=C(NO)c1ccc(-c2cn(CC(=O)N3CCOCC3)nn2)s1 ?
inactive

---

Tested on: HepG2
assay procedure: cytotoxicity call (relative viability < 0.9)
experimental context: 10 µM
Hit rate of the full screen: of about 39,000 compounds, about 3,300 (8.5%) were called active. This excerpt belongs to a sample that is enriched for actives.
Just give me one of these, please: active, inactive

>>> df
                                item_smiles  category
0  C[C@H](CO)N1C[C@H](C)[C@@H](CN(C)CC2CCCCC2)OCCCC[C@H](C)Oc2ccc(NC(=O)Nc3ccc(F)cc3)cc2C1=O    active

Please indicate how the test categorized COc1ccc(S(=O)(=O)Nc2ccc3c(c2)C(=O)N([C@@H](C)CO)C[C@@H](C)[C@@H](CN(C)Cc2ccc(C(F)(F)F)cc2)OCCCC[C@H](C)O3)cc1 .
inactive

Could you please tell me the result logged for Cc1noc(C)c1S(=O)(=O)Nc1ccc2c(c1)C(=O)N([C@H](C)CO)C[C@H](C)[C@@H](CN(C)C(=O)Nc1cccc3ccccc13)OCCCC[C@@H](C)O2 in this assay?
inactive

Assay outcome for COc1cccc(NC(=O)N(C)C[C@@H]2Oc3cc(C#CC4(O)CCCC4)ccc3S(=O)(=O)N([C@@H](C)CO)C[C@@H]2C)c1 : what was it?
inactive

What outcome does the record of this test show for CC(C)NC(=O)Nc1cccc2c1O[C@H](CN(C)S(=O)(=O)c1ccc(F)cc1)[C@@H](C)CN([C@H](C)CO)C2=O ?
inactive

Check the results log: what was the call for [O-][n+]1onc2c1CCc1c-2nn(-c2ccccc2)[n+]1[O-] ?
inactive

What call does the record list for C[C@@H]1CN([C@@H](C)CO)C(=O)c2cc(NC(=O)Nc3ccc(F)cc3)ccc2O[C@@H](C)CCCCO[C@H]1CN(C)CC1CCCCC1 ?
active

Dear all, I need the recorded test outcome for C[C@@H]1CCCCO[C@@H](CN(C)CC2CC2)[C@H](C)CN([C@@H](C)CO)C(=O)c2cc(NC(=O)Nc3ccc(F)cc3)ccc2O1 , thank you.
inactive

State the result this test recorded for COc1ccc(S(=O)(=O)Nc2ccc3c(c2)C(=O)N([C@@H](C)CO)C[C@H](C)[C@H](CN(C)Cc2ccc(C(F)(F)F)cc2)OCCCC[C@@H](C)O3)cc1 .
inactive

Write down the call the test reported for this compound. Item: COc1cccc(NC(=O)N(C)C[C@@H]2Oc3cc(C#Cc4ccncc4)ccc3S(=O)(=O)N([C@@H](C)CO)C[C@H]2C)c1
active

So what was the verdict on COCC(=O)N1C[C@@H](C)[C@H](OC)CN(C)C(=O)c2ccc(NC(=O)Nc3ccccc3)cc2OC[C@H]1C in this test?
inactive

So what was the verdict on O=C(Nc1ccccc1)Nc1ccccc1 in this test?
inactive

Could you check what this test reported for COc1cccc(NC(=O)N(C)C[C@H]2Oc3cc(C#Cc4ccncc4)ccc3S(=O)(=O)N([C@H](C)CO)C[C@H]2C)c1 ?
active

Which result was noted for this compound in the test: COc1ccc(S(=O)(=O)Nc2ccc3c(c2)C(=O)N([C@H](C)CO)C[C@H](C)[C@H](CN(C)Cc2ccc(C(F)(F)F)cc2)OCCCC[C@H](C)O3)cc1
inactive

Assay outcome for COc1ccc(S(=O)(=O)Nc2ccc3c(c2)C(=O)N([C@@H](C)CO)C[C@H](C)[C@@H](CN(C)Cc2ccc(C(F)(F)F)cc2)OCCCC[C@H](C)O3)cc1 : what was it?
inactive

What was the test verdict on COc1ccc(S(=O)(=O)Nc2ccc3c(c2)C(=O)N([C@H](C)CO)C[C@@H](C)[C@H](CN(C)Cc2ccc(C(F)(F)F)cc2)OCCCC[C@H](C)O3)cc1 ?
inactive

Please indicate how the test categorized O=C1NC(=O)[C@H]2[C@@H]1[C@H](c1ccccc1)N1[C@@H]3C(=O)NC(=O)[C@@H]3[C@H](c3ccccc3)N21 .
inactive
